# Test system: CASKI
# assay-info: Primary qHTS to identify gynecologic anti-cancer compounds using libraries of approved drugs and bioactive compounds (AID 1345084); note: nearly all actives have a fitted effect of over 55% in size
# run-parameters: Gynecologic cancer cell panel viability, ATPlite luminescence, 48 h; series mostly up to 57.5 µM
Results filed as inconclusive are left out. Calls of active or inactive are those of the source. Calls come from the whole dose curve; as a rule, active = well fitted cell-killing curve with a large enough effect; inconclusive = small, poorly fitted or top-dose-only effect, or effect the other way; inactive = flat fitted curve, though single readings scatter.
Give one outcome, nothing more. List: active, inactive

## Task Would you mind telling me which call this test gave N#C[C@@H]1C[C@H](F)CN1C(=O)CNC1[C@H]2CN(C(=O)c3ccc(F)cc3)C[C@@H]12 (some centres not stated) ?
## Result inactive

## Task Lookup CCOc1cc(C)c(Cl)cc1S(=O)(=O)n1cnc2ccccc21
## Result inactive

## Task Another: COC(=O)CCSCc1ccc(-c2onc(C)c2NC(=O)OC(C)c2ccccc2Cl)cc1 (configuration not stated)
## Result inactive

## Task And CC1C(=O)OCC2=CCN3CCC(OC(=O)C(C)(O)C1(C)O)C23 (configuration not stated) ?
## Result inactive

## Task What do we get for O=C(Cc1ccc(-c2ccccc2)cc1)NC1CCC1 ?
## Result inactive

## Task Try the compound O=C(O)CCCCCC[C@H]1C(=O)NC(=O)N1CC[C@@H](O)C1CCCCC1
## Result inactive

## Task Next up: CC(C)[C@@](C)(O)[C@@H]1CN(c2nc(-c3[nH]nc4ncccc34)c(F)cc2Cl)CCN1
## Result inactive

## Task For O=C(NCC(O)CO)c1ccncc1Nc1ccc(I)cc1F (configuration not stated) then?
## Result inactive

## Task Similarly, CC1=C(C(=O)OCc2ccccc2)C(c2ccc(-c3ccccc3)cc2)NC(=O)N1CCCCCC(=O)O (configuration not stated) ?
## Result inactive

## Task Then this compound: C/C=C/C=C/[C@@H]1O[C@](O)([C@H](CC)C(=O)NC/C=C/C=C(\C)[C@@H](OC)[C@@H](C)C2OC(/C=C/C=C/C=C(\C)C(=O)c3c(O)cc[nH]c3=O)[C@H](O)[C@@H]2O)[C@H](O)[C@H](O)C1(C)C (some centres not stated)
## Result inactive

## Task What do you get for Cc1ccc(NC(=O)C(=O)NC2CC(C)(C)NC(C)(C)C2)cc1 ?
## Result inactive

## Task And what about the compound CC(C)=C/C=C\[C@H](C)[C@H]1CC[C@]2(C)C[C@@H]3C(C)=CC(=O)C3/C(CO)=C\C[C@@H]12 (some centres not stated) ?
## Result inactive

## Task Here is the next compound: CC1(C)CCCC2(C)C1CC(=O)C13CC(CCC12)C(O)(CO)C3 (configuration not stated)
## Result inactive

## Task Field entry: CN(C)C/C=C/C(=O)Nc1cccc(C(=O)Nc2cccc(Nc3ncc(Cl)c(-c4c[nH]c5ccccc45)n3)c2)c1
## Result active

## Task Do the same for C=C[C@@]12COC(=O)C(=C)C1[C@@H](O)[C@H](C(=C)C(=O)OC)[C@@H](OC(=O)C(=C)CO)C2 (some centres not stated) please
## Result inactive

## Task Another compound to check: Cc1nc(C)c(-c2ccc(C3CCC(CC(=O)O)CC3)cc2)nc1C(N)=O (configuration not stated)
## Result inactive

## Task Another: C=C1C[C@@]23CCC4[C@@](C)(CCC[C@@]4(C)C(=O)OC)C2CC[C@@H]1C3 (some centres not stated)
## Result inactive

## Task Then what about the compound Cc1csc(NC(=O)c2ccc(COc3cccc(Cl)c3)o2)n1 ?
## Result inactive

## Task Next entry: C/C=C/c1cc(OC)c2c(c1)[C@@H](C)[C@@H](c1ccc(O)c(OC)c1)O2
## Result inactive

## Task Same lookup for Nc1nc(Nc2ccc(S(N)(=O)=O)cc2)n(C(=S)Nc2c(F)cccc2F)n1 , please.
## Result inactive

## Task Now the same for C=C(C(=O)OC)C1C(O)CC2(C)C(=O)CCC(O)(CO)C2C1O (configuration not stated)
## Result inactive

## Task Also check Cc1c(CN2CCN(C(=O)C(C)O)CC2)sc2c(N3CCOCC3)nc(-c3cnc(N)nc3)nc12 (configuration not stated)
## Result active

## Task Param item: O=C(CC(c1ccccc1)c1ccccc1)N1CCN(C(c2ccccc2)c2ccccc2)CC1
## Result inactive

## Task Now try C=CC1(C)C=C2CCC3C(C)(C)C(O[C@@H]4O[C@@H](CO)[C@H](O)[C@H]4O)CCC3(C)C2CC1O[C@@H]1O[C@H](C)[C@H](O)[C@H](O)[C@H]1O (some centres not stated) .
## Result inactive

## Task And COC(=O)CC(O)C1OC(c2ccccc2)C(O)C1O (configuration not stated) ?
## Result inactive

## Task Thanks! And C[C@]1(CO)CCC[C@]2(C)C3=C(CCC12)COC3 (some centres not stated) ?
## Result inactive

## Task O=C(Nc1ccccc1-c1cn2c(CN3CCNCC3)csc2n1)c1ccc2ccccc2n1 ?
## Result inactive

====

# assay-info: Primary fluorescence-based thiol-reactive (MSTI) qHTS assay for identification of artifact compounds. (AID 1845221); note: nearly all actives have a fitted effect of over 65% in size
# run-parameters: MSTI thiol-reactivity probe, 1 h; series mostly up to 53.8 µM
Results filed as inconclusive are left out. Active and inactive are the calls of the source. Calls come from the whole dose curve; as a rule, active = well fitted inhibition curve with a large enough effect; inconclusive = small, poorly fitted or top-dose-only effect; inactive = no such curve, though single readings can be large or run the other way.
Please state which outcome applies, choosing from Yes for active, No for inactive

## Task Fill in: this test's call for COc1cc2ncnc(Nc3cccc(Cl)c3F)c2cc1OC(=O)N1CCN(C)C[C@H]1C is ___
## Result No

## Task Also Cc1c(F)cc(C(=O)NC2CC2)cc1-c1c(F)cn2c(C(C)(C)C)nnc2c1F , if possible.
## Result No

## Task Queued: Cc1c(NC(=O)c2cc(C(N)=O)nc3cc(F)ccc23)c(C(F)(F)F)nn1Cc1ccc(C#N)cc1
## Result No

## Task Also need COC1C(=O)CCC2(CO2)C1(O)C1(C)OC1CC=C(C)C (centres undefined) , thanks.
## Result Yes

## Task Same question for CS(=O)(=O)N(CC(=O)NCC1CC1)c1cc(C(F)(F)F)ccc1Cl please.
## Result No

## Task Consider next the molecule CCOc1ccc(NC(=S)N2CCC(C(O)(c3ccccc3)c3ccccc3)CC2)cc1 in the same way.
## Result No

## Task Please do the same for C(#Cc1nc2ncccc2nc1OCCN1CCCC1)c1ccccc1 as well.
## Result No

## Task Similarly, COC(=O)/C=C/C12COC(C)(C)C1C(O)C(OC(C)=O)C1(C)C2CCC2(C)C(c3ccoc3)OC(=O)C3OC321 (centres undefined) ?
## Result No

## Task Another molecule to look at: CCN1CCN(Cc2ccc(NC(=O)Nc3ccc(Oc4cc(NC)ncn4)cc3)cc2C(F)(F)F)CC1
## Result No

## Task Same thing, different molecule: O=C(c1ccc2nccnc2c1)N1CCCCC1
## Result No

## Task Please give the result for NC(=O)Nc1cc(-c2cccc(F)c2)sc1C(=O)NC1CCCNC1 (centres undefined) too.
## Result No

## Task Next record, please: CC(=O)O[C@@H]1[C@@H](CO)O[C@@](CO)(O[C@H]2O[C@H](COC(=O)/C=C/c3ccccc3)[C@@H](O)[C@H](O)[C@H]2O)[C@H]1O
## Result Yes

## Task Similarly, Cc1nc([C@](C)(O)CO)sc1-c1cnc(N)c(O[C@H](C)c2cc(F)ccc2-n2nccn2)c1 ?
## Result No

## Task Please answer likewise for C=C(C)C1CCC(C)C12CC(O)C1(C)OC1C2OC(=O)C(N)CCC(=O)O (centres undefined)
## Result No

## Task Moving on to the next molecule: COc1cc(OC)c(/C=C/S(=O)(=O)Cc2ccc(OC)c(NCC(=O)O)c2)c(OC)c1
## Result Yes

## Task Also CC(C)Oc1ccc(C(=O)NC(CNC(=O)CN(C)C)Cc2ccc(-c3cn4cccc(C(C)O)c4n3)cc2)cc1Cl (centres undefined) , if possible.
## Result No

## Task Try this molecule next: C=C1CC2C(C)(CCC(=O)O)C(C(C)(C)O)CCC2(C)C2C(=O)OC(C)(C(=O)OC)C(=O)C12C (centres undefined)
## Result No

## Task // query: CC/C=C\C/C=C\C/C=C\CCCCCCCC(=O)OCC(O)COC1OC(CO)C(O)C(O)C1O (centres undefined)
## Result No

## Task Okay, and CCC(O)(C(=O)OCc1ccccc1NC(=O)CCC(=O)O)C(C)O (centres undefined) ?
## Result No

## Task Again, but for COc1ccc(Oc2cc(C)c(-c3csc(NC(=O)c4ccncc4)n3)c(C)c2)cc1
## Result No

## Task Let us now turn to CON(C)C(=O)[C@H](O)[C@H](Cc1ccccc1)NC(=O)c1cc2cc(Cl)ccc2[nH]1
## Result No

## Task And N#Cc1ccc2[nH]cc(CCCCN3CCN(c4ccc5oc(C(N)=O)cc5c4)CC3)c2c1 ?
## Result No

## Task Quick one: Cc1noc(=O)c2ccc(NC(=O)C(O)(CC(C)(C)c3cccc4c3OCC4)C(F)(F)F)cc12 (centres undefined)
## Result No

## Task // repeat for CC(C)(C)Nc1nc2cc(Cl)c(Cl)cc2nc1S(C)(=O)=O and report
## Result No

## Task Please do the same for C=CC(C)(C)c1[nH]c2ccccc2c1C[C@@H]1NC(=O)[C@H](Cc2c[nH]c3ccccc23)NC1=O as well.
## Result Yes

## Task Same question, COc1ccc(CN2C(=O)C(=O)c3cc(S(=O)(=O)N4CCC[C@H]4COc4cccnc4)ccc32)cc1 this time
## Result No

## Task // repeat for O=[N+]([O-])c1cccc2[nH]c(CNc3nc(N4CCOCC4)nc4c3ncn4-c3ccsc3)nc12 and report
## Result Yes

## Task Moving on to COc1ncc2cc(C(=O)Nc3cc(C(=O)NCc4cccc(Cl)c4)ccc3Cl)c(=O)[nH]c2n1
## Result No

## Task Also check C=C1C(=O)O[C@H]2[C@H]1CC/C(C)=C/CC[C@@]1(C)O[C@@H]21
## Result No
